- Target entity: Neuropeptide Y receptor type 2 (Rattus norvegicus)
- Sequence (Q9ERC0 whole entry): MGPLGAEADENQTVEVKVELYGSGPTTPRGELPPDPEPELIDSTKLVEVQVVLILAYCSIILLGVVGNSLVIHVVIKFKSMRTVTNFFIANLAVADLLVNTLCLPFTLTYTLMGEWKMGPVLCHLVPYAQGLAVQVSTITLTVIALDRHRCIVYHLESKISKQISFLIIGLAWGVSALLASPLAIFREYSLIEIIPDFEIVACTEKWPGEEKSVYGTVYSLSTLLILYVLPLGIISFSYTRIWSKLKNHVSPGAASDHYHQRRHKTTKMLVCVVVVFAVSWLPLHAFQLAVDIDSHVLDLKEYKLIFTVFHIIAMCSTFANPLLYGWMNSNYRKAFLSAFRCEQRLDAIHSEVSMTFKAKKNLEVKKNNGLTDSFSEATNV
- Method summary: Antisecretory potency, affinity for intestinal PYY of rat jejunum by using short circuit current (SCC) method.
- Assay type: tissue-based
Where a SMILES comes first, the peptide text is derived from it. [ ]: non-standard residue; d: D form. Dip = N[C@H](C(=O)O)C(c1ccccc1)c1ccccc1
Endpoint name: IC50
Field: value (include unit after the number)

Asked: Which IC50 reading was recorded for the compound CC(=O)N[C@@H](C)C(=O)N[C@@H](CO)C(=O)N[C@@H](CC(C)C)C(=O)N[C@@H](CCCNC(=N)N)C(=O)N[C@@H](Cc1cnc[nH]1)C(=O)N[C@H](C(=O)N[C@@H](CC(C)C)C(=O)N[C@@H](CC(N)=O)C(=O)N[C@@H](CC(C)C)C(=O)N[C@H](C(=O)N[C@H](C(=O)N[C@@H](CCCNC(=N)N)C(=O)N[C@@H](CCC(N)=O)C(=O)N[C@@H](CCCNC(=N)N)C(=O)N[C@@H](Cc1ccc(O)cc1)C(N)=O)[C@@H](C)O)C(C)C)C(c1ccccc1)c1ccccc1 (Ac-ASLRH[Dip]LNLVTRQRY-NH2) ?
Given back: 16.5 nM

====

- Target entity: Neuropeptide Y receptor type 1 (Homo sapiens)
- Method summary: Affinity against Neuropeptide Y receptor Y1 in SK-N-MC cell line
- Format: cell-based
Where a SMILES comes first, the peptide text is derived from it. [ ]: non-standard residue; d: D form. 1Nal = N[C@@H](Cc1cccc2ccccc12)C(=O)O
Endpoint name: pIC50
Reminder that pIC50 is minus the log10 of a molar concentration.

Asked: Which pIC50 reading was recorded for the compound CC(=O)N[C@@H](C)C(=O)N[C@@H](CO)C(=O)N[C@@H](CC(C)C)C(=O)N[C@@H](CCCNC(=N)N)C(=O)N[C@@H](Cc1cnc[nH]1)C(=O)N[C@@H](Cc1ccc(O)cc1)C(=O)N[C@@H](CC(C)C)C(=O)N[C@@H](CC(N)=O)C(=O)N[C@@H](Cc1cccc2ccccc12)C(=O)N[C@H](C(=O)N[C@H](C(=O)N[C@@H](CCCNC(=N)N)C(=O)N[C@@H](CCC(N)=O)C(=O)N[C@@H](CCCNC(=N)N)C(=O)N[C@@H](Cc1ccc(O)cc1)C(N)=O)[C@@H](C)O)C(C)C (Ac-ASLRHYLN[1Nal]VTRQRY-NH2) ?
Given back: 6.80

====

- Target entity: Neuropeptide Y receptor type 1 (Homo sapiens, UniProt P25929)
- Sequence (P25929 whole entry): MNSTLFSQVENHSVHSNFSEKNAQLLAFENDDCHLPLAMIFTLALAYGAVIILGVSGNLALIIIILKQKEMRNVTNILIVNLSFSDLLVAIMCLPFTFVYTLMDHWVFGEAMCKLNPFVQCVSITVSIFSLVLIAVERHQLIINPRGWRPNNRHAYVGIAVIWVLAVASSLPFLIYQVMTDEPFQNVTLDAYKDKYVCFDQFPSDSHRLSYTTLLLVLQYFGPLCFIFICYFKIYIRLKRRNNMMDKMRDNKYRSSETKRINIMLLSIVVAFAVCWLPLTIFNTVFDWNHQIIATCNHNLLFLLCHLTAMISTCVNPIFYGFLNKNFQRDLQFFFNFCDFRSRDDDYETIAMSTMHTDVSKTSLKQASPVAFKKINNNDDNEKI
- Method summary: Affinity against Neuropeptide Y receptor Y1 in SK-N-MC cell line
- Assay type: cell-based
Endpoint name: IC50 (nM)
Only the number, expressed in nM, is required.

Asked: Enter reported IC50 observed with Neuropeptide Y receptor type 1 (Homo sapiens, UniProt P25929) for `CC(=O)N[C@@H](C)C(=O)N[C@@H](CO)C(=O)N[C@@H](CC(C)C)C(=O)N[C@@H](CCCN=C(N)N)C(=O)N[C@@H](Cc1c[nH]cn1)C(=O)N[C@@H](Cc1ccc(O)cc1)C(=O)N[C@H](CN[C@@H](CC(N)=O)C(=O)N[C@@H](CC(C)C)C(=O)N[C@H](C(=O)N[C@H](C(=O)N[C@@H](CCCN=C(N)N)C(=O)N[C@@H](CCC(N)=O)C(=O)N[C@@H](CCCN=C(N)N)C(=O)N[C@@H](Cc1ccc(O)cc1)C(N)=O)[C@@H](C)O)C(C)C)CC(C)C`
Given back: 1390
